Data provenance: ChEMBL document CHEMBL1121658

In this section we review reported pKa values for a set of compounds.
Experiment: Acid dissociation constant was determined
Format: ADME
// return a plain number; no unit text

The following compounds have reported results that may help.
1. Oc1c2c(nn1-c1ccc(Br)cc1)-c1ccccc1SC2: 7.13
2. Oc1c2c(nn1-c1cccc(Cl)c1Cl)-c1ccccc1SC2: 7.28
3. Cc1ccc(-n2nc3c(c2O)CSc2ccccc2-3)cc1: 7.64

// pKa lookup, key: Oc1c2c(nn1-c1ccccc1Cl)-c1ccccc1SC2
7.74

// pKa lookup, key: Oc1c2c(nn1-c1ccccc1)-c1ccccc1SC2
7.48
